The measured values listed here are drawn from ChEMBL document CHEMBL2150978.

The entries below come with measured log10 EC90 values attached.
- Tested on: Hepatitis C virus
- run description: Antiviral activity against Hepatitis C virus subtype 1b Con1 infected in human Huh7 cells assessed as inhibition of HCV replicon-encoded Renilla luciferase reporter activity after 72 hrs by HCV replicon assay
- Type: functional, organism-based, Hepacivirus hominis
- test conditions: Con1, Huh-7, 72 h
metric: log10 EC90 (log10 of the value in nM)

>>> meas_value("CCCOC(=O)[C@H](C)NP(=O)(N[C@@H](C)C(=O)OCCC)OC[C@H]1O[C@@H](n2cnc3c(OC)nc(N)nc32)[C@](C)(O)[C@@H]1O (mixture of isomers)")
3.08
>>> meas_value("COc1nc(N)nc2c1ncn2[C@@H]1O[C@H](COP(=O)(N[C@@H](C)C(=O)OCC(C)(C)C)N[C@@H](C)C(=O)OC(C)(C)C)[C@@H](O)[C@@]1(C)O (mixture of isomers)")
2.76
>>> meas_value("COc1nc(N)nc2c1ncn2[C@@H]1O[C@H](COP(=O)(N[C@H](C)C(=O)OCC(C)(C)C)N[C@H](C)C(=O)OCC(C)(C)C)[C@@H](O)[C@@]1(C)O (mixture of isomers)")
2.70
>>> meas_value("C[C@@]1(O)[C@H](O)[C@@H](CO)O[C@H]1n1cnc2c(=O)[nH]c(N)nc21")
3.92
>>> meas_value("CC[C@H](C)[C@H](NP(=O)(N[C@H](C(=O)OC)[C@@H](C)CC)OC[C@H]1O[C@@H](n2cnc3c(OC)nc(N)nc32)[C@](C)(O)[C@@H]1O)C(=O)OC (mixture of isomers)")
4.47
